Measured IC50 of individual entries
Biological target: IMP-28
Test: MBL enzyme inhibition assay, fluorescent cephalosporin substrate FC5
Details: read-out: IC50 against IMP-28; 60 pM IMP-28, 1 μM ZnSO4; mean ± SD

compound	IC50
O=C(O)CN(CC(=O)O)CC(=O)O [compound 3, Nitrilotriacetic acid]	112 µM
O=C(O)c1cccc(C(=O)O)n1 [DPA, 2,6-Dipicolinic acid, reference compound]	17 µM

====

Target: NDM-1 (Klebsiella pneumoniae, UniProt C7C422)
Sequence (C7C422 29-270, looked up, species assumed): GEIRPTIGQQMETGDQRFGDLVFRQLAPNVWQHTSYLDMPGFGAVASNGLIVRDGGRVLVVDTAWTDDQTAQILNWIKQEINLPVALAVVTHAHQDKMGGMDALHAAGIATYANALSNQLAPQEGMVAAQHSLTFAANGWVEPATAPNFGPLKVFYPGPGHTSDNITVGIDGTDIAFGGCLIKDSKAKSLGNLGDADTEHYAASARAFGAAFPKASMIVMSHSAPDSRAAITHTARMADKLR

molecule	IC50 / µM
O=C(O)c1cccc(C(=O)O)n1 [DPA, 2,6-Dipicolinic acid, reference compound]	3.8

Where do the numbers come from? From paper PMC7296533.
